- System: HCT-116 colon
- Experiment: NCI-60 one-dose screen, 48 h (100 = growth as untreated, 0 = no growth, -100 = all killed)
- Run Conditions: 10 µM unless noted
- Experimental: Growth inhibition of the HCT-116 human tumor cell line is measured as a screen for anti-cancer activity. Cells are grown in 96 well plates and exposed to the test compound for 48 hours. Compounds are tested at a single concentration, which is 10^-5 M for most compounds. The reported endpoint is percent growth (GI% or GIPRCNT), where numbers from 0 - 100% represent growth inhibition, and numbers from -100% - 0 represent cell death. For example, a value of 40 represents 60% growth inhibition. […]
The panel holds about 83,000 compounds, 20% with a hit somewhere; the sample as a whole holds those more often.
# YES = growth below 20% (exclusive); NO = growth at/above 20%

Sample answers from the record:
Compound	Cat
Clc1nc(Cl)c2ncn(CC#CCn3cnc4c(Cl)nc(Cl)nc43)c2n1	YES
Cc1oc2c(C(=O)N/N=C\c3ccc(O)cc3O)c[nH]c2c1C	YES
Cc1[nH]n(C(N)=S)c(=O)c1N=Nc1ccc(S(=O)(=O)Nc2ccncn2)cc1	NO
N#Cc1c(C(F)(F)F)cc(Nc2ccc3nc(NCCN4CCCC4)oc3c2)n2c1nc1ccccc12	YES
[2H]C1([2H])[C@H](C)O[C@H](C)C([2H])([2H])N1c1ccc(NC(=O)c2cccc(-c3ccc(OC(F)(F)F)cc3)c2C)cn1	NO
COC(=O)CNC(=O)[C@@H](OC)[C@@H]1Cc2cc3cc(OC4CC(OC5CC(O)C(O)C(C)O5)C(O)C(C)O4)c(C)c(O)c3c(O)c2C(=O)[C@H]1OC1CC(OC2CC(OC3CC(C)(O)C(O)C(C)O3)C(O)C(C)O2)C(O)C(C)O1 (stereo partly specified)	YES
O=C(Cc1ccccc1)Nc1nnc(NC2CCN(c3nnc(NC(=O)Cc4ccccc4)s3)CC2)s1	NO
CC1(/C=N/NC(N)=S)NC(=O)NC1=O (stereo unspecified)	NO

Query block: Does this compound meet the criterion growth < 20%? COc1ccc(Nc2ncccc2NC(=O)c2cn(Cc3cccc(Oc4ccccc4)c3)nn2)cc1
Result block: NO

Query block: hey, is growth for Cc1cc(Nc2cc(N3CCN(C)CC3)nc(Sc3ccc(NC(=O)C4CC4)cc3)n2)n[nH]1 lower than 20% or not?
Result block: YES

Query block: hey, is growth for N#Cc1cc2[nH]c3ccc(OC(F)(F)F)cc3c2oc1=O lower than 20% or not?
Result block: NO

Query block: Hi there! Is growth for CNC(=O)c1cc(Oc2cccc3nc(Nc4ccc(Oc5ccccc5)cc4)ccc23)ccn1 below 20%, do you know?
Result block: NO

Query block: Strictly below 20%: is that where growth of COCCN1CCN(Cc2ccc(-c3n[nH]c4c3C(=O)c3c(NC(=O)NN5CCOCC5)cccc3-4)cc2)CC1 sits?
Result block: YES

Query block: Please determine if Cc1cc(Oc2ccccc2)ccc1Nc1ncnc2ccc(-c3cnc(Cl)c(NS(C)(=O)=O)c3)cc12 is below 20% in terms of growth.
Result block: NO

Query block: Please state whether growth is below 20% for CO[C@H]1C[C@@H]2CC[C@@H](C)[C@@](O)(O2)C(=O)C(=O)N2CCCC[C@H]2C(=O)O[C@H]([C@H](C)C[C@@H]2CC[C@@H](O)[C@H](OC)C2)CC(=O)[C@H](C)/C=C(\C)[C@@H](O)[C@@H](OC)C(=O)[C@H](C)C[C@H](C)\C=C/C=C/C=C/1C
Result block: NO

Query block: Decide: growth of O=C1NC(=O)/C(=C/c2ccc3nccc(-c4ccncc4)c3c2)S1 strictly below 20%?
Result block: YES

Query block: Would you kindly verify if growth of COc1cc(NCCCN)c2ncccc2c1 is strictly less than 20%?
Result block: NO

Query block: Item COc1cccc(Nc2ncnn3ccc(CN4CC[C@@H](N)[C@H](O)C4)c23)c1 : growth beneath 20%, strictly?
Result block: NO

Query block: State whether 20% exceeds growth recorded for COc1ccc2c(CCCCC(c3ccccc3)c3ccccc3)c3[n+](cc2c1OC)CCc1cc2c(cc1-3)OCO2 .
Result block: YES

Query block: Strictly below 20% in growth? C/C=C/C=N/NC(=S)Nc1ccccc1
Result block: NO

Query block: Regarding CCOC(=O)C1=C(C)N=C2Sc3cc(OC(F)(F)F)ccc3N2[C@H]1c1ccccn1 , kindly confirm whether its growth is beneath 20%.
Result block: NO

Query block: Does Brc1ccc([I+]c2ccc(Br)cc2)cc1 have growth strictly under 20%?
Result block: YES

Query block: Answer whether the compound CSc1nc2ncnc(SC)c2[nH]1 has growth strictly less than 20%
Result block: NO

Query block: Take the compound CCCC(=O)OCC1OC(n2cnc3c(=S)nc[nH]c32)C(OC(=O)CCC)C1OC(=O)CCC (stereo unspecified) and say whether its growth is less than 20%.
Result block: NO

Query block: Determine whether this compound shows growth lower than 20% (ties excluded): CCCCCCCC(=O)SCC/C=C/[C@@H]1CC(=O)NCc2nc(co2)C2=N[C@@](C)(CS2)C(=O)N[C@@H](C(C)C)C(=O)O1
Result block: YES

Query block: Threshold test, growth < 20%: O=C(Nc1ccc(N=Nc2ccccc2)cc1)c1cccc2ccccc12
Result block: NO

Query block: Check if growth falls below 20% for N#Cc1ccc(-n2nnc3ccccc32)cc1C#N .
Result block: NO

Query block: A record lists COc1cc2c(Nc3ccc(Br)cc3F)ncnc2cc1OCC1CCN(C)CC1 . Is its growth below 20%?
Result block: NO

Query block: Lab note: confirm whether the reported growth for this compound is below 20%, equality not counting. compound: CN1CC[C@H](c2c(O)cc(O)c3c(=O)cc(-c4ccccc4Cl)oc23)[C@H](O)C1
Result block: YES

* * *

- Tested on: LOX IMVI melanoma
- Experiment: NCI-60 one-dose screen, 48 h (100 = growth as untreated, 0 = no growth, -100 = all killed)
- Run Conditions: 10 µM unless noted
This is part of a sample that, as a whole, favours compounds with a hit. Of some 83,000 tested, about 20% had one in any assay.
Label rule, in plain words: growth of 30% and up is YES, under 30% is NO.

Worked examples follow.
> print(dat)
                                   molecule  cat
1  COC(=O)C1=C(C(=O)OC)C23C=C(C)C1C2=C(C)C1(CC1)[C@@](C)(O)C3=O (some centres not stated)   NO
2  COc1ccc(-c2ccc3ncc4c(c3c2)n(-c2ccc(N3CCNCC3)c(C(F)(F)F)c2)c(=O)n4C)cn1   NO
3  COc1cnc2c(c1)C(=O)c1c-2n(CCCn2ccnc2)c(=O)c2cc(Cl)ccc12   NO

Query block: Hi, just wondering whether CC(C)OP(=O)(CCC(=O)c1c[nH]c2ccccc12)OC(C)C shows growth of 30% or higher.
Result block: YES

Query block: Reported growth at or above 30%? COc1cc2c(Oc3ccc4[nH]c(C)cc4c3F)ncnc2cc1OCCCN1CCCC1
Result block: YES

Query block: hey, is growth for this one >= 30%? Cc1cnc(Nc2ccc(OCCN3CCCC3)cc2)nc1Nc1cccc(S(=O)(=O)NC(C)(C)C)c1
Result block: NO

Query block: Is growth for COc1ccc2c(CCC(c3ccccc3)c3ccccc3)c3[n+](cc2c1OC)CCc1cc2c(cc1-3)OCO2 at or above 30%?
Result block: NO

Query block: Check the entry Cc1cccc(NC(=O)[C@@H]2c3ccccc3C(=O)N(c3ccc(Cl)cc3)[C@H]2c2ccc(Cl)cc2)n1 : does growth equal or exceed 30%?
Result block: YES

* * *

- Tested on: SK-MEL-2 melanoma
- Experiment: NCI-60 one-dose screen, 48 h
- Run Conditions: 10 µM
Compounds without any hit were thinned out: in the full panel of roughly 83,000, 20% have a hit. Activity calls are given as the source filed them. The calls were made as follows: active = growth percent below 10; inactive = the rest.
Use one of these outcomes when replying: label 1 = active, label 0 = inactive

Worked examples, 3 molecules total:
> print(dat)
                                   molecule        target.desc      cat
1  CCCC(=O)OCC1OC(n2cnc3c(=S)nc[nH]c32)C(OC(=O)CCC)C1OC(=O)CCC (stereo not given)  SK-MEL-2 melanoma  label 0
2  COc1cc2c(cc1OCCCCCCN1CCN(c3ncnc4ccccc34)CC1)N=CC1CCCN1C2=O (stereo not given)  SK-MEL-2 melanoma  label 1
3  C=C1C(=O)O[C@H]2[C@H]1CC/C(C=Nc1c(N)cc(C(F)(F)F)cc1C(F)(F)F)=C\CC[C@@]1(C)O[C@@H]21  SK-MEL-2 melanoma  label 1

Query block: // outcome(item) with item = O=C(Nc1ccc(C2=NCCCN2)cc1)c1ccc(C(=O)Nc2ccc(C3=NCCCN3)cc2)nc1
Result block: label 0

Query block: Could you kindly confirm the outcome this assay logged for O=C(NO)c1ccc(Cn2c(=O)n(-c3ccccc3F)c(=O)c3ccccc32)cc1 ?
Result block: label 1
